Some compounds, each annotated with its measured IC50.
target: Kallikrein-7 (Homo sapiens); assay: Inhibition of human kallikrein 7 measured after 15 mins at pH 8 by fluorescence assay; details: read-out: IC50
Sequence (P49862 whole entry): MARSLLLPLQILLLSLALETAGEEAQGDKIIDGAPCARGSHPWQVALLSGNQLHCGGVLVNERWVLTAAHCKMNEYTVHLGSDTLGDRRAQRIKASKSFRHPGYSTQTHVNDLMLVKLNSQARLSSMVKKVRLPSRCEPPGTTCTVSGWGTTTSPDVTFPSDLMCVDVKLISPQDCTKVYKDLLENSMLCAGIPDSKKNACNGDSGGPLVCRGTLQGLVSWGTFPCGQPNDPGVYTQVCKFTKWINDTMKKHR
READOUT: IC50

>  <COMPOUND STRUCTURE STRING>
CSc1nc(-c2ccc(Cl)cc2)nn1C(=O)c1ccccc1

>  <READOUT>
IC50

>  <REPORTED MEASUREMENT>
660 nM

$$$$
>  <COMPOUND STRUCTURE STRING>
Nc1nc(-c2cccnc2)nn1C(=O)c1ccc(Cl)cc1Cl

>  <READOUT>
IC50

>  <REPORTED MEASUREMENT>
3500 nM

$$$$
>  <COMPOUND STRUCTURE STRING>
Cc1ccc(C(=O)n2nc(-c3cccnc3)nc2N)cc1

>  <READOUT>
IC50

>  <REPORTED MEASUREMENT>
40 nM

$$$$
>  <COMPOUND STRUCTURE STRING>
COc1ccc(C(=O)n2nc(-c3ccccc3)nc2N)cc1OC

>  <READOUT>
IC50

>  <REPORTED MEASUREMENT>
230 nM

$$$$
>  <COMPOUND STRUCTURE STRING>
COc1ccc(C(=O)n2cnnc2N)cc1

>  <READOUT>
IC50

>  <REPORTED MEASUREMENT>
610 nM

$$$$
>  <COMPOUND STRUCTURE STRING>
Nc1nc(-c2cccnc2)nn1C(=O)c1ccc(Cl)cc1

>  <READOUT>
IC50

>  <REPORTED MEASUREMENT>
220 nM

$$$$

Values from ChEMBL document CHEMBL2406906
